protocol-text: Homolysis of the NO–C bond measured by EPR
recorded-conditions: t-BuPh
Listed compounds paired with reported re-estimated homolysis rate constant kd at 120 °C

Examples with their reported re-estimated homolysis rate constant kd at 120 °C follow.
query: Complete the entry with re-estimated homolysis rate constant kd at 120 °C for CC(ON1C(C)(C)CC(O)CC1(C)C)c1cc(-c2ccccn2)nc(-c2ccccn2)c1 (racemic) [(R/S)-8F]
result: 0.46 10^−3 s^−1

query: Complete the entry with re-estimated homolysis rate constant kd at 120 °C for CCOP(=O)(OCC)C(N(OC(C)c1cc(-c2ccccc2)cc(-c2ccccc2)c1)C(C)(C)CO[Si](C)(C)C(C)(C)C)C(C)(C)C (stereo not drawn) [(RR/SS)-6G]
result: 5.10 10^−3 s^−1

Next:
query: Complete the entry with re-estimated homolysis rate constant kd at 120 °C for CCOP(=O)(OCC)C(N(OC(C)c1cc(-c2ccccn2)nc(-c2ccccn2)c1)C(C)(C)CO)C(C)(C)C (stereo not drawn) [(RS/SR)-2F]
result: 29.9 10^−3 s^−1

====

protocol-text: Homolysis of the NO–C bond measured by EPR
recorded-conditions: half-lifetime t1/2 at 37 °C, t-BuPh
Protocol: Homolysis rate constants kd’ were measured by EPR and estimated using Equation (1) as reported many times in the literature. Further, Ea and kd were estimated using Equation (2). (1) ln([nitroxide]∞−[nitroxide]t/[nitroxide]∞)=−kd·t (2) Ea=−RT ln([…] kd′ )
Listed compounds paired with reported half-life
Just the number in h, nothing appended.

query: Complete the entry with half-life for CCOP(=O)(OCC)C(N(OC(C)c1cc(-c2ccccc2)cc(-c2ccccc2)c1)C(C)(C)CO[Si](C)(C)C(C)(C)C)C(C)(C)C (stereo not drawn) [(RR/SS)-6G]
result: 802

Next:
query: Complete the entry with half-life for CCOP(=O)(OCC)C(N(OC(C)c1cc(-c2ccccc2)cc(-c2ccccc2)c1)C(C)(C)CO)C(C)(C)C (stereo not drawn) [(RR/SS)-2G]
result: 180

====

Listed molecules paired with reported IC50
Test system: Vero cells
protocol-text: Cytotoxicity assay (MTT)
recorded-conditions: read-out: Cytotoxicity Mean IC50, Vero cell lines; 48 h, MTT
Just the number in µM, nothing appended.

Examples with their reported IC50 follow.
query: Complete the entry with IC50 for CC(ON1C(C)(C)CCCC1(C)C)c1ccncc1 (stereo not shown)
result: 40

query: Complete the entry with IC50 for CCOP(=O)(OCC)C(N(OC(C)c1cc(-c2ccccn2)nc(-c2ccccn2)c1)C(C)(C)C=O)C(C)(C)C (stereo not shown) [(RR/SS)-7F]
result: 1.2

query: Complete the entry with IC50 for CCOP(=O)(OCC)C(N(OC(C)c1ccnc2c1ccc1cccnc12)C(C)(C)C)C(C)(C)C (stereo not shown)
result: 1.1

Next:
query: Complete the entry with IC50 for CCOP(=O)(OCC)C(N(OC(C)c1cc(-c2ccccn2)nc(-c2ccccn2)c1)C(C)(C)CO)C(C)(C)C (stereo not shown) [(RR/SS)-2F]
result: 0.7

====

Tested on: Adult S. mansoni
protocol-text: In vitro antischistosomal activity on adult worms
Type: cell-based, Schistosoma mansoni
recorded-conditions: 100 µg/mL, observation up to 8 h (Table S1)
endpoint: Mean (±SD) survival time – Adult S. mansoni

Examples with their reported Mean (±SD) survival time – Adult S. mansoni follow.
query: Complete the entry with Mean (±SD) survival time – Adult S. mansoni for CCOP(=O)(OCC)C(N(OC(C)c1ccc2ccc3cccnc3c2n1)C(C)(C)C)C(C)(C)C (stereo not drawn)
result: 1.1 ± 0.05 h

query: Complete the entry with Mean (±SD) survival time – Adult S. mansoni for CCOP(=O)(OCC)C(N(OC(C)c1cc(-c2ccccc2)cc(-c2ccccc2)c1)C(C)(C)CO)C(C)(C)C (stereo not drawn) [(RS/SR)-2G]
result: > 8 h

query: Complete the entry with Mean (±SD) survival time – Adult S. mansoni for CC(ON1C(C)(C)CC(O)CC1(C)C)c1ccncc1 (stereo not drawn)
result: > 8 h

query: Complete the entry with Mean (±SD) survival time – Adult S. mansoni for CCOP(=O)(OCC)C(N(OC(CNC(=O)C(F)(F)F)c1ccccc1)C(C)(C)C)C(C)(C)C (stereo not drawn) [(RR/SS)-1E]
result: 5.0 ± 0.5 h

query: Complete the entry with Mean (±SD) survival time – Adult S. mansoni for CCOP(=O)(OCC)C(N(OC(C)c1ccc([N+](=O)[O-])cc1)C(C)(C)C)C(C)(C)C (stereo not drawn) [(RS/SR)-1v]
result: > 8 h

Next:
query: Complete the entry with Mean (±SD) survival time – Adult S. mansoni for CC(ON1C(C)(C)CC(O)CC1(C)C)c1cccnc1 (stereo not drawn)
result: > 8 h

query: Complete the entry with Mean (±SD) survival time – Adult S. mansoni for CC(ON1C(C)(C)CC(O)CC1(C)C)c1ccccc1 (stereo not drawn)
result: 1.9 ± 0.1 h

query: Complete the entry with Mean (±SD) survival time – Adult S. mansoni for CCOP(=O)(OCC)C(N(OC(CO)c1ccccc1)C(C)(C)C)C(C)(C)C (stereo not drawn) [(RS/SR)-1C]
result: 1.4 ± 0.2 h

query: Complete the entry with Mean (±SD) survival time – Adult S. mansoni for CCOP(=O)(OCC)C(N(OC(C)c1cc(-c2ccccn2)nc(-c2ccccn2)c1)C(C)(C)C(=O)O)C(C)(C)C (stereo not drawn) [(RR/SS)-4F]
result: > 8 h
